# System: serum SARS-yellow
# Format: binding, human
Quantity Kind: Binding of serum SARS-yellow to linear peptides of Orf14 of SARS-CoV TOR2

LAAVGEILLLEWLAE :: 0.6
LPPCYNFLKEQHCQK :: 0.0
QKASTQREAEAAVKP :: 0.1

Each sequence below has a reported value. Please supply its Binding of serum SARS-yellow to linear peptides of Orf14 of SARS-CoV TOR2.
1. EWLAEVVKLPSRYCC
2. LLEWLAEVVKLPSRY

1. 0.3
2. 0.3

Each sequence below has a reported value. Please supply its Binding of serum SARS-yellow to linear peptides of Orf14 of SARS-CoV TOR2.
1. STQREAEAAVKPLLA
2. VGEILLLEWLAEVVK
3. AVGEILLLEWLAEVV
4. LLLEWLAEVVKLPSR
5. IQEIQLLAAVGEILL
6. LLAAVGEILLLEWLA
7. YNFLKEQHCQKASTQ
8. AAVGEILLLEWLAEV

1. 0.5
2. 0.4
3. 0.5
4. 0.2
5. 0.4
6. 0.4
7. 0.3
8. 0.6

Each sequence below has a reported value. Please supply its Binding of serum SARS-yellow to linear peptides of Orf14 of SARS-CoV TOR2.
1. AVKPLLAPHHVVAVI
2. PLLAPHHVVAVIQEI
3. IQLLAAVGEILLLEW
4. VIQEIQLLAAVGEIL
5. CYNFLKEQHCQKAST

1. 0.6
2. 0.4
3. 0.4
4. 0.3
5. 0.1

---

# Tested on: serum SARS-green
# Type: binding, human
Quantity Kind: Binding of serum SARS-green to linear peptides of Orf14 of SARS-CoV TOR2
One number for each entry.

Each sequence below has a reported value. Please supply its Binding of serum SARS-green to linear peptides of Orf14 of SARS-CoV TOR2.
1. KPLLAPHHVVAVIQE
2. LLAAVGEILLLEWLA
3. GEILLLEWLAEVVKL
4. CQKASTQREAEAAVK

1: 0.3; 2: 0.1; 3: 0.3; 4: 0.0

Each sequence below has a reported value. Please supply its Binding of serum SARS-green to linear peptides of Orf14 of SARS-CoV TOR2.
1. EILLLEWLAEVVKLP
2. NFLKEQHCQKASTQR
3. LPPCYNFLKEQHCQK
4. YNFLKEQHCQKASTQ

1. 0.4
2. 0.3
3. 0.0
4. 0.5

Each sequence below has a reported value. Please supply its Binding of serum SARS-green to linear peptides of Orf14 of SARS-CoV TOR2.
1. AVGEILLLEWLAEVV
2. LEWLAEVVKLPSRYC
3. AEAAVKPLLAPHHVV
4. IQEIQLLAAVGEILL
5. HCQKASTQREAEAAV
6. VKPLLAPHHVVAVIQ
7. EAEAAVKPLLAPHHV

[0.3, 0.1, 0.8, 0.3, 0.4, 0.3, 0.4]

Each sequence below has a reported value. Please supply its Binding of serum SARS-green to linear peptides of Orf14 of SARS-CoV TOR2.
1. QHCQKASTQREAEAA
2. LKEQHCQKASTQREA
3. MLPPCYNFLKEQHCQ
4. APHHVVAVIQEIQLL
5. AVKPLLAPHHVVAVI
6. VGEILLLEWLAEVVK
7. QLLAAVGEILLLEWL

1: 0.3; 2: 0.1; 3: 0.2; 4: 0.1; 5: 0.3; 6: 0.2; 7: 0.1

---

I'd be grateful if you could share measured Control Serum Blood-Bank Looped peptides for these entries.
# Test system: control serum Blood-bank (commercial negative donor pooled serum)
# Type: binding, human
One number for each entry.

Solved cases below.
HHVVAVIQEIQLLAA :: 0.5
LAAVGEILLLEWLAE :: 0.7
DFYLCFLAFLLFLVL :: 0.6
QREAEAAVKPLLAPH :: 0.7
EQHCQKASTQREAEA :: 0.9

Each sequence below has a reported value. Please supply its Control Serum Blood-Bank Looped peptides.
1. FLLFLVLIMLIIFWF
2. LLLEWLAEVVKLPSR
3. GEILLLEWLAEVVKL
4. FLKEQHCQKASTQRE
5. LCFLAFLLFLVLIML
6. QEIQLLAAVGEILLL
7. LLFLVLIMLIIFWFS

[0.6, 0.7, 0.5, 0.9, 0.7, 0.6, 0.9]

---

# System: serum 37 (individual 37)
# Type: binding, human
Quantity Kind: Binding of serum 37 to linear peptides of Orf14 of SARS-CoV TOR2
Give bare numbers.

Solved cases below.
VVAVIQEIQLLAAVG :: 0.6
LLAAVGEILLLEWLA :: 0.6
CYNFLKEQHCQKAST :: 0.6
QLLAAVGEILLLEWL :: 0.6
HVVAVIQEIQLLAAV :: 0.6
AAVGEILLLEWLAEV :: 0.8
IQEIQLLAAVGEILL :: 0.7
LKEQHCQKASTQREA :: 0.4

Each sequence below has a reported value. Please supply its Binding of serum 37 to linear peptides of Orf14 of SARS-CoV TOR2.
1. VAVIQEIQLLAAVGE
2. LPPCYNFLKEQHCQK
3. EAAVKPLLAPHHVVA
4. KASTQREAEAAVKPL

1: 0.5; 2: 0.3; 3: 0.7; 4: 0.3

---

# Tested on: control serum LUMC (pooled serum of ten healthy hospital workers)
# Format: binding, human
Quantity Kind: Control serum LUMC linear peptides
Answers are plain numbers.

LCFLAFLLFLVLIML :: 0.4

Each sequence below has a reported value. Please supply its Control serum LUMC linear peptides.
1. AEAAVKPLLAPHHVV
2. EAAVKPLLAPHHVVA

1.0
0.8

Each sequence below has a reported value. Please supply its Control serum LUMC linear peptides.
1. LTLIDFYLCFLAFLL
2. IQLLAAVGEILLLEW
3. REAEAAVKPLLAPHH
4. AAVKPLLAPHHVVAV
5. QKASTQREAEAAVKP
6. VVAVIQEIQLLAAVG
7. LEWLAEVVKLPSRYC
8. KEQHCQKASTQREAE

1. 0.8
2. 0.6
3. 0.3
4. 1.0
5. 0.3
6. 1.1
7. 0.4
8. 0.3

---

# System: control serum LUMC (pooled serum of ten healthy hospital workers)
# Format: binding, human
Quantity Kind: Control serum LUMC linear peptides
Give bare numbers.

Solved cases below.
VGEILLLEWLAEVVK :: 0.6
QEIQLLAAVGEILLL :: 0.7
PHHVVAVIQEIQLLA :: 0.5
DFYLCFLAFLLFLVL :: 0.4
WFSLEIQDLEEPCTK :: 0.5

Each sequence below has a reported value. Please supply its Control serum LUMC linear peptides.
1. IDFYLCFLAFLLFLV
2. CQKASTQREAEAAVK
3. LLEWLAEVVKLPSRY
4. IIFWFSLEIQDLEEP
5. FWFSLEIQDLEEPCT
6. VLIMLIIFWFSLEIQ
7. YLCFLAFLLFLVLIM

1. 0.5
2. 0.2
3. 0.4
4. 0.7
5. 0.3
6. 0.7
7. 0.4

Each sequence below has a reported value. Please supply its Control serum LUMC linear peptides.
1. FLLFLVLIMLIIFWF
2. IFWFSLEIQDLEEPC
3. QLLAAVGEILLLEWL
4. PCYNFLKEQHCQKAS
5. LAPHHVVAVIQEIQL
6. HVVAVIQEIQLLAAV
7. VAVIQEIQLLAAVGE
8. LLLEWLAEVVKLPSR

1. 0.3
2. 0.7
3. 0.6
4. 0.1
5. 0.6
6. 0.5
7. 0.3
8. 0.5

Each sequence below has a reported value. Please supply its Control serum LUMC linear peptides.
1. LLFLVLIMLIIFWFS
2. LVLIMLIIFWFSLEI
3. AVKPLLAPHHVVAVI
4. VIQEIQLLAAVGEIL

[0.4, 0.8, 0.6, 0.6]

---

# Test system: serum 62 (individual 62)
# Assay type: binding, human
Quantity Kind: Binding of serum 62 to linear peptides of Orf14 of SARS-CoV TOR2

Each sequence below has a reported value. Please supply its Binding of serum 62 to linear peptides of Orf14 of SARS-CoV TOR2.
1. IQEIQLLAAVGEILL
2. ILLLEWLAEVVKLPS
3. FLKEQHCQKASTQRE
4. KPLLAPHHVVAVIQE
5. KASTQREAEAAVKPL

1. 0.4
2. 0.4
3. 0.3
4. 0.4
5. 0.2

---

# System: serum SARS-green
# Assay type: binding, human
Quantity Kind: Binding of serum SARS-green to linear peptides of Orf14 of SARS-CoV TOR2
Answers are plain numbers.

Solved cases below.
REAEAAVKPLLAPHH :: 0.1
KASTQREAEAAVKPL :: 0.1
AAVKPLLAPHHVVAV :: 0.6

Continue with the next sequence.
Lab book: Binding of serum SARS-green to linear peptides of Orf14 of SARS-CoV TOR2 of LLAPHHVVAVIQEIQ noted as 0.3
